target.system: T1, HLA-DR13 molecule (DRB1*1301) (human)
T1 chain 1: not shown
T1 chain 2: not shown
experiment: competitive ELISA, nonbiotinylated peptide vs its biotinylated tracer
No end group written: not given here.
reported.metric: IC50

Q: Reported IC50 for TERVRLVTRHIYNREE (not fully specified) [B1 21-36 peptide (nonbiotinylated)] : what is it?
Ans: 800 nM
